- Assay context: [M-H]-; instrument: DT; single field, calibrated with Agilent tune mix (Agilent)
Measured parameter: collision cross section (N2) (Å²)
API: value field is a number in Å²; no unit string.

Recorded collision cross section (N2), per entry:
Compound	Units	Readout value
CCCCC/C=C\C/C=C\CCCCCCCCCCCC(=O)O[C@H](COC(=O)CCCCCCC/C=C\CCCCCC)COP(=O)(O)O[C@H]1C(O)C(O)C(O)[C@@H](O)C1O (stereo partly drawn) [PI(38:3)]	Å²	293.7
CCCCCCCCCC/C=C\CCCCCCCCCC(=O)O[C@H](COC(=O)CCCCCCCCCCC)COP(=O)(O)O[C@H]1C(O)C(O)C(O)[C@@H](O)C1O (stereo partly drawn) [PI(34:1)]	Å²	283.7
CCCC/C=C\CCCCCCCC(=O)OC[C@H](COP(=O)(O)O)OC(=O)CCCCCCCCCCCCCCCCCCCCC [PA(36:1)]	Å²	261.6

Fill in reported collision cross section (N2) for this entry: CCCC/C=C\CCCCCCCC(=O)OC[C@H](COP(=O)(O)OC[C@@H](O)CO)OC(=O)CCCCCCCCC/C=C\C/C=C\CCCCC [PG(34:3)] 266.2

Fill in reported collision cross section (N2) for this entry: CCCCCCCC/C=C\CCCCCCCCCC(=O)OC[C@@H](O)COP(=O)(O)OCCN [LPE(20:1)] 218.4

Fill in reported collision cross section (N2) for this entry: CCCCC/C=C\C/C=C\CCCCCCCCCCCC(=O)O[C@H](COC(=O)CCCCCCC/C=C\C/C=C\CCCCC)COP(=O)(O)OCCN [PE(40:4)] 278.5

Numbers sourced from the C3SDB collision cross section collection.
